I'd appreciate it if you could supply activity at 2 µg/mL values for the items below.
# Tested on: Enterococcus faecalis
# experiment: Percent fluorescence (growth) in wells containing antimicrobial agents, Example 1 (Table 6)
# Type: cell-based
# run_parameters: Enterococcus faecalis; 2 μg/mL; read-out: percent fluorescence
# Protocol: A primary inoculum suspension of a bacterial isolate in saline-pluronic, equivalent to a 0.5 McFarland turbidity standard is prepared. […] The inoculated multicompartment device (panel) is inserted in the autoSCAN®-W/A. The fluorescence of each compartment is measured at predetermined times and a Growth Index is calculated by dividing the fluorescence of the growth compartment by that of the negative control compartment. […]
Answers are plain numbers, in %.

Consider the following illustrative entries.
# input Please look at CO/N=C(\C(=O)N[C@@H]1C(=O)N2C(C(=O)O)=C(COC(N)=O)CS[C@H]12)c1ccco1 [Cefuroxime] and tell me its recorded activity at 2 µg/mL on Enterococcus faecalis.
# output 85

# input Please look at Cc1nnc(SCC2=C(C(=O)O)N3C(=O)[C@@H](NC(=O)Cn4cnnn4)[C@H]3SC2)s1 [Cefazolin] and tell me its recorded activity at 2 µg/mL on Enterococcus faecalis.
# output 105

# input Please look at CC1(C)S[C@@H]2[C@H](NC(=O)[C@H](N)c3ccccc3)C(=O)N2[C@H]1C(=O)O [Ampicillin] and tell me its recorded activity at 2 µg/mL on Enterococcus faecalis.
# output 6

# input Please look at CCC[C@@H]1C[C@@H](C(=O)N[C@@H]([C@H]2O[C@H](SC)[C@H](O)[C@@H](O)[C@H]2O)[C@H](C)Cl)N(C)C1 [Clindaimycin, Clindamycin] and tell me its recorded activity at 2 µg/mL on Enterococcus faecalis.
# output 71

***
# input Please look at C[C@@H](O)[C@H]1C(=O)N2C(C(=O)O)=C(SCCN=CN)C[C@H]12 [Imipenem] and tell me its recorded activity at 2 µg/mL on Enterococcus faecalis.
# output 5

* * *

# Test system: Enterococcus faecalis
# experiment: Minimum inhibitory concentration determination, Example 1 (Table 7)
# Format: cell-based
# run_parameters: Enterococcus faecalis, read-out: concentration at which organism was found to be susceptible
readout_name: MIC

Consider the following illustrative entries.
# input Entry O=C(O)c1cn(C2CC2)c2cc(N3CCNCC3)c(F)cc2c1=O [Ciprofloxacin] needs its MIC filled in; supply it.
# output < 1 µg/mL

# input Entry O=C(N[C@H](CO)[C@H](O)c1ccc([N+](=O)[O-])cc1)C(Cl)Cl [Chloramphenicol] needs its MIC filled in; supply it.
# output < 4 µg/mL

Please examine the following record next.
# input Entry CN[C@H](CC(C)C)C(=O)N[C@H]1C(=O)N[C@@H](CC(N)=O)C(=O)N[C@H]2C(=O)N[C@H]3C(=O)N[C@H](C(=O)N[C@H](C(=O)O)c4cc(O)cc(O)c4-c4cc3ccc4O)[C@H](O)c3ccc(c(Cl)c3)Oc3cc2cc(c3O[C@@H]2O[C@H](CO)[C@@H](O)[C@H](O)[C@H]2O[C@H]2C[C@](C)(N)[C@H](O)[C@H](C)O2)Oc2ccc(cc2Cl)[C@H]1O [Vancomycin] needs its MIC filled in; supply it.
# output < 2 µg/mL
